All values here come from patent US6599917B1.

- Tested on: cholesterol biosynthesis
- testSummary: Measurement of cholesterol biosynthesis inhibitive activity in a rat
- Format: in vivo
- measurementConditions: 2 h; male SD rat, oral, dose 3 mg/kg, inhibition rate to control group
metric: inhibition in vivo at 3 mg/kg (%)
Give just the numeric value; % need not be written.

molecule	valueObserved
COCCOc1ccc(C#C[C@@]2(O)CN3CCC2CC3)c(Cc2ccccc2)n1 [Example 147]	87

Item COCCCNc1ccc(C#CC2(O)CN3CCC2CC3)c(Cc2ccccc2)n1 (centres unmarked) [Example 11] has what recorded inhibition in vivo at 3 mg/kg?
72

What measured inhibition in vivo at 3 mg/kg goes with COCCOc1ccc(C#CC2(O)CN3CCC2CC3)c(Cc2ccccc2)n1 (centres unmarked) [Example 12] ?
78

inhibition in vivo at 3 mg/kg for O=C1[C@H](O)CCN1c1ccc(C#C[C@@]2(O)CN3CCC2CC3)c(Cc2ccccc2)n1 [Example 142] ?
82

Which inhibition in vivo at 3 mg/kg value belongs to CO[C@@H]1CN(c2ccc(C#C[C@@]3(O)CN4CCC3CC4)c(Cc3ccccc3)n2)C(=O)[C@@H]1OC [Example 123] ?
86

Reported inhibition in vivo at 3 mg/kg for COC(C)COc1ccc(C#C[C@@]2(O)CN3CCC2CC3)c(Cc2ccccc2)n1 (some centres unmarked) [Example 148] : what is it?
92

Any idea what its inhibition in vivo at 3 mg/kg is? The molecule is COCCCOc1ccc(C#CC2(O)CN3CCC2CC3)c(Cc2ccccc2)n1 (centres unmarked) [Example 13]
87

Query: inhibition in vivo at 3 mg/kg; subject: COCCOc1cc(Cc2ccccc2)c(C#CC2(O)CN3CCC2CC3)cn1 (centres unmarked) [Example 6]
73
